PROTOCOL: Stat Signaling Pathway (AID 446);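 also: ME-180 cervical cancer cells given 40 pM IL-6 alongside compound; SIE-controlled beta-lactamase reporter measured as 460/530 nm FRET emission ratio; % is scaled to controls: 0 for no effect and ±100 for the full control effect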
DETAILS: ME-180 (cervical carcinoma) SIE beta-lactamase reporter, IL-6 stimulated, 5 h; at 7.69 µM (top of the series) unless noted
Results filed as inconclusive are left out. Activity calls are given as the source filed them. Calls follow the shape of the dose curve; as a rule, active = well fitted curve in either direction with a large enough effect (not every such curve was filed as active); inconclusive = small, poorly fitted or top-dose-only effect, or another doubt; inactive = flat fitted curve, though single readings scatter.
Please provide measured activity, negative = inhibition for the entries that follow.

Use the examples below as a reference point.
MOL SMILES: O=C1CC[C@](CCc2nc3ccccc3[nH]2)(c2ccccc2)C(=O)N1
activity, negative = inhibition: 3.31% (inactive)

MOL SMILES: O=C(O)c1cc(N=Nc2ccc([N+](=O)[O-])cc2)ccc1O
activity, negative = inhibition: -2.69% (inactive)

MOL SMILES: Oc1ccccc1C(Sc1nc2ccccc2s1)Sc1nc2ccccc2s1
activity, negative = inhibition: -11.5% (inactive)

Quick request: activity, negative = inhibition for each listed item, please.
1. Nc1ccn([C@@H]2O[C@H](COC(=O)C34CC5CC(CC(C5)C3)C4)[C@@H](O)[C@@H]2O)c(=O)n1
2. Clc1ccccc1C(Nc1cnccn1)Nc1cnccn1
3. COc1cc(NCCC(=O)O)c2ncccc2c1
4. C[Si](C)(c1ccc(C(=O)O)cc1)c1ccc(C(=O)O)cc1
5. C[C@H](N)C(=O)OC(C)(C)Cc1ccc(Cl)cc1
6. O=S(=O)(O)c1ccc(-c2nnc(-c3ccccn3)nc2-c2ccc(S(=O)(=O)O)o2)o1
7. O=C(O)Cc1cc(Cl)ccc1O
8. CC(C)CNc1nc2ncnc(N)c2[nH]1

-0.882% (inactive)
-2.8% (inactive)
-1.17% (inactive)
14.2% (inactive)
24.9% [at 38 µM] (inactive)
2.53% (inactive)
20.2% (inactive)
-10.8% (inactive)

====

PROTOCOL: Cell Viability - LYMP1-002 - Assay at 24 hr (AID 993)
DETAILS: LYMP1-002 lymphoblastoid cells viability; series mostly up to 92.2 µM
Active and inactive are the calls of the source. The call rests on the fitted dose curve; in most records, active means well fitted cell-killing curve with a large enough effect; inconclusive means small, poorly fitted or top-dose-only effect; inactive means flat fitted curve, though single readings scatter.
Form entry, call: pick from active, inactive

Please review the following examples before continuing.
MOLECULE: CCc1ccc(C(c2ccc(CC)cc2)C(Cl)Cl)cc1
QUALITATIVE LABEL: inactive

MOLECULE: CN(C)c1ccc(C(=N)c2ccc(N(C)C)cc2)cc1
QUALITATIVE LABEL: inactive

MOLECULE: CC(=O)c1ccc(Cl)c(Cl)c1Cl
QUALITATIVE LABEL: inactive

MOLECULE: Nc1cc([N+](=O)[O-])ccc1O
QUALITATIVE LABEL: inactive

MOLECULE: O=[N+]([O-])c1ccc(F)cc1F
QUALITATIVE LABEL: inactive

Could you kindly confirm the outcome this assay logged for Cc1cc2nc(N)sc2cc1C ?
inactive

Recorded call for Brc1cc(Oc2cc(Br)c(Br)c(Br)c2Br)c(Br)c(Br)c1Br ?
inactive

Fill in: this test's call for c1ccc2c(c1)ccc1ccccc12 is ___
inactive

Query: recorded result category for C1CCCNCC1 in this test
inactive

Per the assay record, what outcome was assigned to Cc1ccc(C(=O)O)cc1[N+](=O)[O-] ?
inactive

I would be grateful if you could indicate the recorded call for CC(C)OCC1CO1 (centres undefined) .
inactive

Dear colleague, could you share the recorded outcome for CCCCOC(=O)COc1ccc(Cl)cc1Cl when you have a moment?
inactive

Per the records of this test, what outcome belongs to CCNC(=S)NCC ?
inactive

Hi team, can someone confirm the assay call for N=C1C=CC(=C(c2ccc(N)cc2)c2ccc(N)cc2)C=C1 ?
active
